# Test system: NCI-H226 lung
# MEASUREMENT PROTOCOL: NCI tumour cell line growth inhibition, 48 h
Where a SMILES comes first, the peptide text is derived from it. The star is where a group is joined. OSu = O=C1CCC(=O)N1O*
METRIC NAME: TGI

Guide cases for TGI, answers given:
O=C(Oc1ccccc1)C(Br)C(Br)c1ccccc1 (configuration not stated)	18.7 µM
CCC[CH2][Sn]([CH2]CCC)([O]C(=O)c1cccc(F)c1F)[O]C(=O)c1cccc(F)c1F	2.52 µM
COCOc1cc(OC)ccc1C/C(=N/O)C(=O)OC	> 100 µM
NCCCCC(NC(=O)C(N)Cc1ccc(O)cc1)C(=O)NC(Cc1ccc(O)cc1)C(=O)NC(CCCCN)C(=O)ON1C(=O)CCC1=O (configuration not stated) (H-YKYK-OSu; configuration not given here)	> 100 µM
CC(CC[C@@]1(O)OC2C[C@H]3[C@@H]4CC[C@H]5CC(OC6OC(CO)C(OC7OC(CO)C(O)C(OC8OCC(O)C(O)C8O)C7OC7OC(CO)C(O)C(O)C7O)C(O)C6O)[C@H](O)CC5(C)[C@H]4CCC3(C)C2[C@@H]1C)COC1OC(CO)C(O)C(O)C1O (some centres not stated)	28.8 µM
CCNC(=S)NNC(=O)CSc1nc2ccc(I)cc2c(=O)n1Cc1ccccc1	> 95.5 µM
C/C(O)=C(\C=NC(=S)c1ccncc1)C(=O)Nc1ccccc1C	> 100 µM
C[C@H]1O[C@@H](C(C)(C)C)OC(=O)[C@@H]1C(OC(=O)c1ccccc1)c1cccc2ccccc12 (some centres not stated)	> 100 µM
C=CC[C@]1(C2=NC(C)(C)CO2)c2ccccc2-c2ccccc2[C@H]1C(C)=O	30 µM
Nc1ccc(-c2ccc3ncc4ccc(=O)n(-c5cccc(C(F)(F)F)c5)c4c3c2)cn1	4.7 µM

Qu. Identify measured TGI associated with Nc1c2cc3ccc2nc2ccc(cc12)OCCOCCOCCOCCOCCOCCO3
Ans. > 10 µM

Qu. Identify measured TGI associated with COc1ccc2c(c1)[n+](=O)c(C(=O)CC(=O)C(=O)Nc1cccc(C)c1C)c(C)n2[O-]
Ans. > 100 µM

Qu. Identify measured TGI associated with COc1ccc(C2C3=C(COC3=O)OC(C)(C)Oc3cc4c(cc32)OCO4)cc1OC (configuration not stated)
Ans. > 100 µM

Qu. Identify measured TGI associated with O=C1/C(=C/c2ccccc2)CCCc2ccccc21
Ans. 36.6 µM

Qu. Identify measured TGI associated with CCOc1ccc(N=Cc2ccnc3ccccc23)cc1
Ans. > 100 µM

Qu. Identify measured TGI associated with Cc1c(C)c2c(c(C)c1OCC(=O)O)CC[C@@](C)(CCC[C@@H](C)CCC[C@@H](C)CCCC(C)C)O2
Ans. 244 µM

Qu. Identify measured TGI associated with C#CC(O)/C=C/C(O)CCCC(O)CC#CC(O)C#CCCCCC(O)/C=C/CCCC(O)/C=C/CCCCCCCCCCCCCC(O)C(O)C#CC(=O)O (configuration not stated)
Ans. > 25 µM

Qu. Identify measured TGI associated with O=c1[nH]nc(-c2ccc(F)cc2)cc1-c1ccccc1
Ans. > 100 µM

Qu. Identify measured TGI associated with CC(=O)OC1C(O[C@H]2CC[C@]34O[C@]35CC[C@]3(C)C(C6(C)CC[C@@H](C(C)(C)O)O6)[C@@H](O)CC3(C)[C@@H]5CC(OC3OC(CO)C(O)C(O)C3O)C4C2(C)C)OCC(O)C1O (some centres not stated)
Ans. > 100 µM

Qu. Identify measured TGI associated with CC[n+]1c(/C=C/c2ccc(N(CCCl)CCCl)cc2)ccc2cc(I)ccc21
Ans. 5.63 µM

Qu. Identify measured TGI associated with COc1cccc(NC(=O)c2sc3nc4c(cc3c2N)C(O)CCC4)c1 (configuration not stated)
Ans. > 100 µM

Qu. Identify measured TGI associated with OC12CCC3(O)c4ccccc4C3C1c1ccccc12 (configuration not stated)
Ans. > 100 µM
